Reference source: paper PMC2699545

# test target: N370 (wild-type) GCase (Homo sapiens)
# Sequence (P04062 40-536): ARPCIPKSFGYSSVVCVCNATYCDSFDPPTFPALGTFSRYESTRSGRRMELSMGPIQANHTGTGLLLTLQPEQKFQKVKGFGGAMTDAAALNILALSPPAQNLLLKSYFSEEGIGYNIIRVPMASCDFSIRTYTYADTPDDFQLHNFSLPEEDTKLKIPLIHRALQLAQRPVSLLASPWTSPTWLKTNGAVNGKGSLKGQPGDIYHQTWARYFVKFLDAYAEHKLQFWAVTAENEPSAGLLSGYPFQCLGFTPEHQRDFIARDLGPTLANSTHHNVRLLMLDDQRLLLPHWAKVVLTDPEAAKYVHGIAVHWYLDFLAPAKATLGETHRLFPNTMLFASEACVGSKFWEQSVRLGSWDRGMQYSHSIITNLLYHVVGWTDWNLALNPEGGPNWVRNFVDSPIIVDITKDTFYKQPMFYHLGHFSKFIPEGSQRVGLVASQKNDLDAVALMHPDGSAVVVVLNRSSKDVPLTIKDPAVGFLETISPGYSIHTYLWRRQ
# test summary: GCase inhibition by active site-directed inhibitors, 4MU-Glc substrate
result type: IC50 (µM)
Only the number, expressed in µM, is required.

The reported value for O[C@H]1[C@H](O)[C@@H](O)[C@@H]2O[C@@H]2[C@@H]1O (racemic) [Conduritol B Epoxide, conduritol B epoxide] in terms of IC50 is 73

---

# test target: E235G GCase (Homo sapiens, UniProt P04062, E274G)
# Sequence (P04062 40-536 E274G): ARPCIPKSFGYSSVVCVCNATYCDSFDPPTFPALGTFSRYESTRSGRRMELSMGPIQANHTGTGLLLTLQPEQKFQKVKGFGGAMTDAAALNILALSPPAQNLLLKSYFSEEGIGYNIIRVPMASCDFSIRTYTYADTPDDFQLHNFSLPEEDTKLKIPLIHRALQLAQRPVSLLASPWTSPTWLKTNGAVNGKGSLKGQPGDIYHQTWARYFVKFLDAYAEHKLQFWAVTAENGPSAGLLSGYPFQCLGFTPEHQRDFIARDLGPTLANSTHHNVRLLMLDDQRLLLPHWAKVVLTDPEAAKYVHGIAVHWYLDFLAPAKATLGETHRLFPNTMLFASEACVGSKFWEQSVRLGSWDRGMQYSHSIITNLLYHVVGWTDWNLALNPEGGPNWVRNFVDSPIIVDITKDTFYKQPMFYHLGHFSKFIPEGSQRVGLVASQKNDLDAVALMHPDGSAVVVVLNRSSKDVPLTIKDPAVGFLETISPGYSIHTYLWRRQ
# test summary: E235G hydrolysis of alternative substrates, with or without azide
# Format: biochemical
# experimental parameters: TC (4.25 mM) as activator; no azide
result type: E235G activity toward substrate compared to wild-type enzyme

[
  {
    "compound": "O=[N+]([O-])c1ccccc1O[C@@H]1O[C@H](CO)[C@H](O)[C@H](O)[C@H]1O",
    "reported value": "less than 0.05%"
  },
  {
    "compound": "O=[N+]([O-])c1ccc(O[C@@H]2O[C@H](CO)[C@@H](O)[C@H](O)[C@H]2O)c([N+](=O)[O-])c1 [DNPG, 2,4-dinitrophenyl-β-D-glucoside]",
    "reported value": "~ 2%"
  },
  {
    "compound": "O=[N+]([O-])c1ccc(O[C@@H]2O[C@H](CO)[C@H](O)[C@H](O)[C@H]2O)cc1",
    "reported value": "less than 0.05%"
  },
  {
    "compound": "Cc1cc(=O)oc2cc(O[C@@H]3O[C@H](CO)[C@@H](O)[C@H](O)[C@H]3O)ccc12 [4MU-Glc, 4-methylumbelliferyl-β-D-glucoside]",
    "reported value": "less than 0.05%"
  }
]

---

# test target: N370S GCase (Homo sapiens, UniProt P04062, N409S)
# Sequence (P04062 40-536 N409S): as the sequence (P04062 40-536) above, with N370S counted along it
# test summary: GCase inhibition by active site-directed inhibitors, 4MU-Glc substrate
result type: pIC50
# log scale: pIC50 equals minus log10 of the concentration in mol/L

The reported value for O[C@H]1[C@H](O)[C@@H](O)[C@@H]2O[C@@H]2[C@@H]1O (racemic) [Conduritol B Epoxide, conduritol B epoxide] in terms of pIC50 is 3.60

---

# test target: N370Q GCase (Homo sapiens, UniProt P04062, N409Q)
# Sequence (P04062 40-536 N409Q): as the sequence (P04062 40-536 E274G) above, with G235E, N370Q counted along it
# test summary: GCase inhibition by active site-directed inhibitors, 4MU-Glc substrate
result type: IC50
Please provide the amount together with its unit, number first.

The reported value for O[C@H]1[C@H](O)[C@@H](O)[C@@H]2O[C@@H]2[C@@H]1O (racemic) [Conduritol B Epoxide, conduritol B epoxide] in terms of IC50 is 75 µM
